# Tested on: Aurora kinase A (Homo sapiens), O14965 [T288D]
# Sequence (whole entry): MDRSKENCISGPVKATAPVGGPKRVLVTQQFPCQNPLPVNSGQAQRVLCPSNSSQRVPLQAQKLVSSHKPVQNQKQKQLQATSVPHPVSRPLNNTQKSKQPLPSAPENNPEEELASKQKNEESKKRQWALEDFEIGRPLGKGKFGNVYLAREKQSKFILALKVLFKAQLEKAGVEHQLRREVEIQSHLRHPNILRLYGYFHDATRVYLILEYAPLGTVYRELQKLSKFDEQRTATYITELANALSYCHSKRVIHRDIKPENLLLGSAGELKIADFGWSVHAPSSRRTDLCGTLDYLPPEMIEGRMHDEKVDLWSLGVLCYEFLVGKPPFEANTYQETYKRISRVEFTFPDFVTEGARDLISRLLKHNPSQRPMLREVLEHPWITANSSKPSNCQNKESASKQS
# Method: Inhibition of Aurora kinase A T288D mutant expressed in Escherichia coli BL21 DE3 at 10 uM
Property Measured: inhibition

CCOC(=O)c1c(C)n[nH]c1N/N=C/c1cccc2[nH]ccc12: 50.3%
CCOC(=O)c1c(C)n[nH]c1N/N=C/c1ccc(-c2ccccc2)cc1: 27.5%
CCOC(=O)c1c(C)n[nH]c1N/N=C/c1ccc(F)cc1: 36.5%
CCOC(=O)c1c(C)n[nH]c1N/N=C/c1ccc2[nH]ccc2c1: 50%
CCOC(=O)c1c(C)n[nH]c1N/N=C/c1ccc(N2CCN(C)CC2)cc1: 41%
CCOC(=O)c1c(C)n[nH]c1N/N=C(\C)c1ccc(OC)cc1: 18.2%
CCOC(=O)c1c(C)n[nH]c1N/N=C/c1ccc(OC)cc1: 33.9%
CCOC(=O)c1c(C)n[nH]c1N/N=C/Cc1ccccc1: 3.6%
CCOC(=O)c1c(C)n[nH]c1N/N=C/c1ccccc1: 16.4%

---

# Target: Aurora kinase A (Homo sapiens, UniProt O14965, T288D)
# Method: Inhibition of Aurora kinase A T288D mutant expressed in Escherichia coli BL21 DE3
Property Measured: IC50 (µM)

COc1ccc(/C=N/Nc2[nH]nc(C)c2C(=O)NCCCc2ccccc2)cc1: 1.94
CCOC(=O)c1c(C)n[nH]c1N/N=C/c1cccc2[nH]ccc12: 13.7
COc1ccc(/C=N/Nc2[nH]nc(C)c2C(=O)OCc2ccccc2)cc1: 5.25
COc1ccc(/C=N/Nc2[nH]nc(C)c2C(=O)NCc2cccc(OC)c2)cc1: 0.838
COc1ccc(/C=N/Nc2[nH]nc(C)c2C(=O)Nc2ccc(N(C)C)cc2)cc1: 1.57

---

# Target: Aurora kinase A (Homo sapiens, UniProt O14965, T288D)
# Method: Inhibition of Aurora kinase A T288D mutant expressed in Escherichia coli BL21 DE3
pIC50: −log10 of the molar value.
# pIC50 listing for each entry below
Property Measured: pIC50

COc1ccc(/C=N/Nc2[nH]nc(C)c2C(=O)NCCc2c[nH]cn2)cc1: 5.71
COc1ccc(/C=N/Nc2[nH]nc(C)c2C(=O)NCCc2ccccc2)cc1: 5.87
COc1ccc(/C=N/Nc2[nH]nc(C)c2C(=O)Nc2ccccc2)cc1: 6.09
COc1ccc(/C=N/Nc2[nH]nc(C)c2C(=O)NCc2ccc(OC)cc2)cc1: 5.79
COc1ccc(/C=N/Nc2[nH]nc(C)c2C(=O)Nc2cccc(OC)c2)cc1: 6.35
COc1ccc(/C=N/Nc2[nH]nc(C)c2C(=O)Nc2ccc(F)cc2)cc1: 5.84
COc1ccc(/C=N/Nc2[nH]nc(C)c2C(=O)Nc2ccc(NC(C)=O)cc2)cc1: 6.14
COc1ccc(/C=N/Nc2[nH]nc(C)c2C(=O)Nc2ccccc2OC)cc1: 5.96
CCOC(=O)c1c(C)n[nH]c1N/N=C/c1ccc(OC)cc1: 4.82
CCOC(=O)c1c(C)n[nH]c1N/N=C/c1ccc2[nH]ccc2c1: 4.94
COc1ccc(/C=N/Nc2[nH]nc(C)c2C(=O)NCc2ccccc2)cc1: 5.80
COc1ccc(/C=N/Nc2[nH]nc(C)c2C(=O)NCc2cccc(NC(C)=O)c2)cc1: 5.76
COc1ccc(/C=N/Nc2[nH]nc(C)c2C(=O)NCCc2ccc(OC)cc2)cc1: 5.80
COc1ccc(/C=N/Nc2[nH]nc(C)c2C(=O)NCCc2c[nH]c3ccccc23)cc1: 5.97
COc1ccc(/C=N/Nc2[nH]nc(C)c2C(=O)Nc2ccc(OC)cc2)cc1: 6.34
COc1ccc(/C=N/Nc2[nH]nc(C)c2C(=O)NCCc2cccc(OC)c2)cc1: 5.54
COc1ccc(/C=N/Nc2[nH]nc(C)c2C(=O)Nc2ccc(OC)c(OC)c2)cc1: 6.02
COc1ccc(/C=N/Nc2[nH]nc(C)c2C(=O)NCCc2cccnc2)cc1: 5.83
